- Target Or System: Plasmodium falciparum protein kinase 6 (PK6, PF3D7_1337100)
- Protocol Details: PfPK6 kinase inhibitors, biochemical, TCAMS library (AID 1159586)
- Measurement Parameters: recombinant PfPK6, Kinase-Glo ATP depletion luminescence
Measured potencies and affinities stand elsewhere. Activity calls are given as the source filed them. The rule behind the calls is not given here.
Recorded Metric: outcome

Solved cases below.
{"Mol": "CN(C)c1cc2c(Nc3ccc4nc(Cc5ccccc5)[nH]c4c3)ncnc2cn1", "outcome": "inactive"}
{"Mol": "c1ccc([C@H]2CN3CCSC3=N2)cc1", "outcome": "inactive"}
{"Mol": "CCCCCN=C(N)N/N=C/c1c[nH]c2ccc(OC)cc12", "outcome": "inactive"}
{"Mol": "CS(=O)(=O)CCNCc1ccc(-c2ccc3ncnc(Nc4ccc(OCc5ccccc5)c(Cl)c4)c3c2)o1", "outcome": "inactive"}
{"Mol": "Cc1ccc(O)cc1Nc1ccnc2cc(-c3ccccn3)ccc12", "outcome": "inactive"}
{"Mol": "N=C(N)c1ccc(OCCCCCOc2ccc(C(=N)N)cc2)cc1", "outcome": "inactive"}
{"Mol": "c1ccc(CC2=NCCN2)cc1", "outcome": "inactive"}

Per the record, NC12CC3CC(CC(C3)C1)C2 has outcome of inactive
